Target: UniProt P30419
Sequence (P30419 1-496): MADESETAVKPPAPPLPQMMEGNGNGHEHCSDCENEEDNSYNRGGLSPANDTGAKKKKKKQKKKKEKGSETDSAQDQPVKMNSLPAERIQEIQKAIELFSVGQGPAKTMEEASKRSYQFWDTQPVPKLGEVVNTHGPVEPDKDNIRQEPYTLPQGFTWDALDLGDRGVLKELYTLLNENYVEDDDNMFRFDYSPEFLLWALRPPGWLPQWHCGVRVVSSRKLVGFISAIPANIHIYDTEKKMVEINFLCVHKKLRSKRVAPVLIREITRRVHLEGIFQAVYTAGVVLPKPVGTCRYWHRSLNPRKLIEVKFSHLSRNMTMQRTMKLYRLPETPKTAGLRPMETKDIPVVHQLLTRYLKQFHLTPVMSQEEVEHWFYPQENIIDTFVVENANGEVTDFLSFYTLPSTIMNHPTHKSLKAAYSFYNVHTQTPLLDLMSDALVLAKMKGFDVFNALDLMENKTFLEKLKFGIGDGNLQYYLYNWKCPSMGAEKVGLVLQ
observation.type: IC50 (nM)

I = Cc1nn(C)c(C)c1N(C)S(=O)(=O)c1c(Cl)cc(N2CCN(C(=O)c3ccc(N)cc3)CC2)cc1Cl [compound 8]
II = Cc1nn(C)c(C)c1N(C)S(=O)(=O)c1c(Cl)cc(N2CCN(C(=O)c3ccn[nH]3)CC2)cc1Cl [compound 4]
III = Cc1nn(C)c(C)c1N(C)S(=O)(=O)c1c(Cl)cc(N2CCN(C(=O)c3cn[nH]c3)CC2)cc1Cl [compound 6]
IV = Cc1nn(C)c(C)c1N(C)S(=O)(=O)c1c(Cl)cc(N2CCN(C(=O)c3cccnc3)CC2)cc1Cl [compound 7]
Arrange by IC50, high to low. Your reply should list the labels following the order given in the request.
IV, III, II, I

Recorded values, source paper PMC6332449.
